Would you mind telling me the reported relative affinity of tieing (ARL), Androgen of each entry?
target: Androgen receptor of prostate of rats (Rattus norvegicus, UniProt P15207); construct: The prostates were removed, weighed and homogenized at 0° C; from tissue; host or cells: rat prostate, 105,000 g supernatant (castrated male Sprague-Dawley rats); assay: Androgen receptor binding (displacement of tritiated product P); details: incubation 1/2H at 0° C.
Sequence (P15207 whole entry S389L): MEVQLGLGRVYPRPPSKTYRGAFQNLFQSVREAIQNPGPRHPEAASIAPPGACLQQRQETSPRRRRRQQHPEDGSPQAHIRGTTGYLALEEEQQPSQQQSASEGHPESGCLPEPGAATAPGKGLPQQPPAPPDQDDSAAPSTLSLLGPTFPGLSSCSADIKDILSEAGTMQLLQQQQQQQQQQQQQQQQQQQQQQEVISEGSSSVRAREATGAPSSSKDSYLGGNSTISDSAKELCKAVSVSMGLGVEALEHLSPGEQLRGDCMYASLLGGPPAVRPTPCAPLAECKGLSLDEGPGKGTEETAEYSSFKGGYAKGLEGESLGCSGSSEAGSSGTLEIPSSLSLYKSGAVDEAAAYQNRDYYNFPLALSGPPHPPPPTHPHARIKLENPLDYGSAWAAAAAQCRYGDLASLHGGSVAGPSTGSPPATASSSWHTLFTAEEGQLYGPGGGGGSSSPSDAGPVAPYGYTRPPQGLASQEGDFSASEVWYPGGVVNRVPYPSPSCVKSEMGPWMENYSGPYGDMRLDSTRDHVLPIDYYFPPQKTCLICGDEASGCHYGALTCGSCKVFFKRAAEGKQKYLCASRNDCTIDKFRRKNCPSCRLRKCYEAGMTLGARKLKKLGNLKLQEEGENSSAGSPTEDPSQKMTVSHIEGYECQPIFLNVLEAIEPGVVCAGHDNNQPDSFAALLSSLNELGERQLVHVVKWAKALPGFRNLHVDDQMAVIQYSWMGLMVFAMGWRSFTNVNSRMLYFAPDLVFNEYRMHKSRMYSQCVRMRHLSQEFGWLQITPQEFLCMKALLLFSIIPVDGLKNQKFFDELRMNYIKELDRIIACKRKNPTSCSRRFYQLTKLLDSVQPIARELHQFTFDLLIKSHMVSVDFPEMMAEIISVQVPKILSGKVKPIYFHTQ

In: Consider the compound shown here: CN(C)CCOc1ccc([C@H]2C[C@]3(C)[C@@H](O)CC[C@H]3[C@@H]3CCc4ccccc4[C@H]32)cc1 [Example 14] What is its recorded relative affinity of tieing (ARL), Androgen?
Out: 10,6

In: Consider the compound shown here: CC#C[C@]1(O)CC[C@H]2[C@@H]3CCC4=CC(=O)[C@H](C)CC4=C3[C@@H](c3ccc(N(C)C)cc3)C[C@@]21C [5 (2α)] What is its recorded relative affinity of tieing (ARL), Androgen?
Out: 0,5

In: Consider the compound shown here: CN(C)CCOc1ccc([C@H]2C[C@]3(C)[C@@H](O)CC[C@H]3[C@@H]3CCc4cc(O)ccc4[C@H]32)cc1 [Example 13] What is its recorded relative affinity of tieing (ARL), Androgen?
Out: 5

In: Consider the compound shown here: CC#C[C@]1(OC(C)=O)CC[C@H]2[C@@H]3CCc4cc(O)ccc4[C@H]3[C@@H](c3ccc(N(C)C)cc3)C[C@@]21C [2 (17 OAc)] What is its recorded relative affinity of tieing (ARL), Androgen?
Out: < 0,1

In: Consider the compound shown here: CC#C[C@]1(O)CC[C@H]2[C@@H]3CCC4=CC(=O)[C@@H](C)CC4=C3[C@@H](c3ccc(N(C)C)cc3)C[C@@]21C [5 (2β)] What is its recorded relative affinity of tieing (ARL), Androgen?
Out: 0,7

In: Consider the compound shown here: CC#C[C@]1(O)CC[C@H]2[C@@H]3CCC4=CC(=O)C(C#N)(C#N)CC4=C3[C@@H](c3ccc(N(C)C)cc3)C[C@@]21C [Example 9] What is its recorded relative affinity of tieing (ARL), Androgen?
Out: < 0,1

In: Consider the compound shown here: CN(C)CCOc1ccc2c(c1)CC[C@@H]1[C@@H]2[C@@H](c2ccccc2)C[C@]2(C)[C@@H](O)CC[C@@H]12 [Example 15] What is its recorded relative affinity of tieing (ARL), Androgen?
Out: 1,3

---

Molecular target: Mineralcorticoidal receptor of kidneys of the rat (Rattus norvegicus, UniProt P22199)
Construct: from tissue; host or cells: rat kidney, 105,000 g supernatant (adrenalectomized male Sprague-Dawley rats)
Sequence (P22199 1-981): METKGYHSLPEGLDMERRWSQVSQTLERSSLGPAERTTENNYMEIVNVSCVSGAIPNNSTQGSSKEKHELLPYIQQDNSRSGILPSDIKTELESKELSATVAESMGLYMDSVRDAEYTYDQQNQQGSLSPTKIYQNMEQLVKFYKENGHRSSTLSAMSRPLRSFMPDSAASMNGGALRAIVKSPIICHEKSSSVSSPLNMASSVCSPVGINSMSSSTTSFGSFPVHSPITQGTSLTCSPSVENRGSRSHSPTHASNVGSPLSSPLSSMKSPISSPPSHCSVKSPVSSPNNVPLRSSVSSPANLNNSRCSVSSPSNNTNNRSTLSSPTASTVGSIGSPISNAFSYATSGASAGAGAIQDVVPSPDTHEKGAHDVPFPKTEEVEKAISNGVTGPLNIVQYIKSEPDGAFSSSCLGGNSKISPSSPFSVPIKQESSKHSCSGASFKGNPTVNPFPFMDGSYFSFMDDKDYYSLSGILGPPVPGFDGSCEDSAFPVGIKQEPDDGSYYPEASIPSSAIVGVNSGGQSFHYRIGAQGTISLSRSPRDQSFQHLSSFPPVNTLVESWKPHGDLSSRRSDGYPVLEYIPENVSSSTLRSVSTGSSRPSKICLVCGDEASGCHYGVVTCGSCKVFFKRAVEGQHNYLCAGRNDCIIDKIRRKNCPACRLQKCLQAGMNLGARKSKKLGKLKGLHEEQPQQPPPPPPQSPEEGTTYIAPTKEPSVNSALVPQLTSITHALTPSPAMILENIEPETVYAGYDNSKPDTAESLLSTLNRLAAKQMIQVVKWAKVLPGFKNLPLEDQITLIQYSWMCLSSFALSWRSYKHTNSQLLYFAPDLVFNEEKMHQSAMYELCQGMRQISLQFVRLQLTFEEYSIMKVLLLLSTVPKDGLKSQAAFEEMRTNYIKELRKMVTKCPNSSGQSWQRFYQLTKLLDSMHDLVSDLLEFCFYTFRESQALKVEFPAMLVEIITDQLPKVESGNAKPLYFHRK
Experiment: Mineralcorticoidal receptor binding (displacement of tritiated aldosterone)
Settings: incubation 1 H at 0° C.
Would you mind telling me the reported relative affinity of tieing (ARL), Mineralocorticoid of each entry?

In: Consider the compound shown here: `CC#C[C@]1(O)CC[C@H]2[C@@H]3CCC4=CC(=O)C(C)(C)CC4=C3[C@@H](c3ccc(N(C)C)cc3)C[C@@]21C` What is its recorded relative affinity of tieing (ARL), Mineralocorticoid?
Out: < 0,1

In: Consider the compound shown here: `CC#C[C@]1(OC(C)=O)CC[C@H]2[C@@H]3CCc4cc(O)ccc4[C@H]3[C@@H](c3ccc(N(C)C)cc3)C[C@@]21C` What is its recorded relative affinity of tieing (ARL), Mineralocorticoid?
Out: < 0,1

In: Consider the compound shown here: `CC#C[C@]1(O)CC[C@H]2[C@@H]3CCC4=CC(=O)C(C#N)(C#N)CC4=C3[C@@H](c3ccc(N(C)C)cc3)C[C@@]21C` What is its recorded relative affinity of tieing (ARL), Mineralocorticoid?
Out: < 0,1

---

target: Progestogen receptor of the uterus of rabbits (Oryctolagus cuniculus); construct: The uterus was removed, weighed and homogenized at 0° C; from tissue; host or cells: rabbit uterus, 105,000 g supernatant (estradiol-primed immature rabbits); test: Progestogen receptor binding (displacement of tritiated product R); parameters: species or system rabbit; details: second table; incubation 24 H at 0° C.
Sequence (P06186 whole entry): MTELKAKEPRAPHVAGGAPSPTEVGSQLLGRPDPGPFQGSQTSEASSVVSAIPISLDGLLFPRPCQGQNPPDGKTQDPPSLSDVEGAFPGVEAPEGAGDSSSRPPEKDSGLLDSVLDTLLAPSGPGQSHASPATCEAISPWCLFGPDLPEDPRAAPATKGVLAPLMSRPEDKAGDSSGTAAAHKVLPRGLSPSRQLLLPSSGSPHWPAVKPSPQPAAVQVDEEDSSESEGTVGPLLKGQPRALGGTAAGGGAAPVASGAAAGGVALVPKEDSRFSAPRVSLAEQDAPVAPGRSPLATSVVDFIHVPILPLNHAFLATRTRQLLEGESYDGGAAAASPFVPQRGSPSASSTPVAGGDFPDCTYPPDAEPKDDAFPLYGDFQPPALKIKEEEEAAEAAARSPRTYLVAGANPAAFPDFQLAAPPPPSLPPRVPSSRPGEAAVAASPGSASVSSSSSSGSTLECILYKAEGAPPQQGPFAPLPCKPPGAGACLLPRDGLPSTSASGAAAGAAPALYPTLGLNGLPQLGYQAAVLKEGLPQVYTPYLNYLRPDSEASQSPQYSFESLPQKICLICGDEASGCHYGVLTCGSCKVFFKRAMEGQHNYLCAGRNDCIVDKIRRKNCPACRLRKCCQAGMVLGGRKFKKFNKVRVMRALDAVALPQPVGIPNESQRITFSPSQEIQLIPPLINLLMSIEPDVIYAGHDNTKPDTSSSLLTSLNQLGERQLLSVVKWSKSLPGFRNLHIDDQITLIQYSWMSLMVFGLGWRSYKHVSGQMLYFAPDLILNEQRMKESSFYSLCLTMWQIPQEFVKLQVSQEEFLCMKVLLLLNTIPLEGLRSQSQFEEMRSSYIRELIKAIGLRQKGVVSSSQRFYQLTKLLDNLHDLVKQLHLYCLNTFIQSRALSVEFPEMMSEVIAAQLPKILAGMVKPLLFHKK
Would you mind telling me the reported relative affinity of tieing (ARL), Progestogen of each entry?
Give the figure only, with no unit attached.

In: Consider the compound shown here: `C=CC[C@]1(O)CC[C@H]2[C@@H]3CCC4=CC(=O)CCC4=C3[C@@H](c3ccc(N(C)C)cc3)C[C@@]21C` What is its recorded relative affinity of tieing (ARL), Progestogen?
Out: 843

In: Consider the compound shown here: `CN(C)c1ccc([C@H]2C[C@@]3(C)[C@@H](CC[C@@]3(O)C#Cc3ccccc3)[C@@H]3CCC4=CC(=O)CCC4=C32)cc1` What is its recorded relative affinity of tieing (ARL), Progestogen?
Out: 250

In: Consider the compound shown here: `CN(C)c1ccc([C@H]2C[C@@]3(C)[C@@H](CC[C@@]3(O)C#C[Si](C)(C)C)[C@@H]3CCC4=CC(=O)CCC4=C32)cc1` What is its recorded relative affinity of tieing (ARL), Progestogen?
Out: 38

---

molecular target: Androgen receptor of prostate of rats (Rattus norvegicus, UniProt P15207); construct: The prostates were removed, weighed and homogenized at 0° C; from tissue; host or cells: rat prostate, 105,000 g supernatant (castrated male Sprague-Dawley rats); assay: Androgen receptor binding (displacement of tritiated product P); conditions: second table; incubation 24 H at 0° C.
observed-property: relative affinity of tieing (ARL), Androgen

In: Consider the compound shown here: CN(C)c1ccc([C@H]2C[C@@]3(C)[C@@H](CC[C@@]3(O)C#CCl)[C@@H]3CCC4=CC(=O)CCC4=C32)cc1 [Example 25] What is its recorded relative affinity of tieing (ARL), Androgen?
Out: 32

In: Consider the compound shown here: C[C@]12C[C@H](c3ccc([N+](C)(C)[O-])cc3)[C@]34O[C@]35CCC(=O)C=C5CC[C@H]4[C@@H]1CC[C@@]2(O)C#CCl [Example 27] What is its recorded relative affinity of tieing (ARL), Androgen?
Out: 2,8

In: Consider the compound shown here: CN(C)c1ccc([C@H]2C[C@@]3(C)[C@@H](CC[C@@]3(O)C#Cc3ccccc3)[C@@H]3CCC4=CC(=O)CCC4=C32)cc1 [Example 29] What is its recorded relative affinity of tieing (ARL), Androgen?
Out: 0

In: Consider the compound shown here: C#C[C@@]1(O)CC[C@H]2[C@@H]3CCC4=CC(=O)CCC4=C3[C@@H](c3ccc(N(C)C)cc3)C[C@@]21C [Example 21] What is its recorded relative affinity of tieing (ARL), Androgen?
Out: 7,3

---

Biological target: Gluocorticoid receptor of thymus of rats (Rattus norvegicus)
Construct: The thymus were removed and homogenized at 0° C; from tissue; host or cells: rat thymus, 105,000 g supernatant (adrenalectomized male Sprague-Dawley rats)
Sequence (P06536 1-795): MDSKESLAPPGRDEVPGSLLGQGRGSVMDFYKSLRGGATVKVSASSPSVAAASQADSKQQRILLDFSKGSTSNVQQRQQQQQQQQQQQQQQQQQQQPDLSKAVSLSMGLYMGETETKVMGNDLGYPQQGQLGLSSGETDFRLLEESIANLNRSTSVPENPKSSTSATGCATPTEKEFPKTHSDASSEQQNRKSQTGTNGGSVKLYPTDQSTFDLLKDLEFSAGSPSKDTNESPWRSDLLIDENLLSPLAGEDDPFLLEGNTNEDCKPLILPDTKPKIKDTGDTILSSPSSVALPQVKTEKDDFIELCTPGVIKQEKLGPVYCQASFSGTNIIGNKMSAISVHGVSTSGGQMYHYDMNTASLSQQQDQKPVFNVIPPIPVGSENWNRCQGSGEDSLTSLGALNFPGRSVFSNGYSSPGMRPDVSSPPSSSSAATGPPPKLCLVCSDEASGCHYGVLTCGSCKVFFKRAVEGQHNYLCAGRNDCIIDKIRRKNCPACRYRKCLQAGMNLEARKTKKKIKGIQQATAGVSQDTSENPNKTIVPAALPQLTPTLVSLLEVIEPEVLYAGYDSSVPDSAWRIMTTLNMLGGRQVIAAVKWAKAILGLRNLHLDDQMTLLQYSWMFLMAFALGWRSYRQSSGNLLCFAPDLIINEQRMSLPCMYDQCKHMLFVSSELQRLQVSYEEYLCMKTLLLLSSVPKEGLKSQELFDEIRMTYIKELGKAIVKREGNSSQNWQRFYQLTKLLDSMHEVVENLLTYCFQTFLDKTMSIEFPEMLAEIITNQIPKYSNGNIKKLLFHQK
Test: Glucocorticoid receptor binding (displacement of tritiated dexamethasone)
Settings: second table; incubation 4 H at 0° C.
Assign condition met whenever relative affinity of tieing (ARL), Glucocorticoid does not fall below 200; assign condition not met whenever it does.

In: Check this compound for relative affinity of tieing (ARL), Glucocorticoid at or above 200: `CN(C)c1ccc([C@H]2C[C@@]3(C)[C@@H](CC[C@@]3(O)C#C[Si](C)(C)C)[C@@H]3CCC4=CC(=O)CCC4=C32)cc1`
Out: condition not met

In: Check this compound for relative affinity of tieing (ARL), Glucocorticoid at or above 200: `CN(C)c1ccc([C@H]2C[C@@]3(C)[C@@H](CC[C@@]3(O)C#Cc3ccccc3)[C@@H]3CCC4=CC(=O)CCC4=C32)cc1`
Out: condition not met

In: Check this compound for relative affinity of tieing (ARL), Glucocorticoid at or above 200: `C=CC[C@]1(O)CC[C@H]2[C@@H]3CCC4=CC(=O)CCC4=C3[C@@H](c3ccc(N(C)C)cc3)C[C@@]21C`
Out: condition not met

In: Check this compound for relative affinity of tieing (ARL), Glucocorticoid at or above 200: `C[C@]12C[C@H](c3ccc([N+](C)(C)[O-])cc3)C3=C4CCC(=O)C=C4CC[C@H]3[C@@H]1CC[C@@]2(O)C#CCl`
Out: condition not met

In: Check this compound for relative affinity of tieing (ARL), Glucocorticoid at or above 200: `CN(C)c1ccc([C@H]2C[C@@]3(C)[C@@H](CC[C@@]3(O)C#CCl)[C@@H]3CCC4=CC(=O)CCC4=C32)cc1`
Out: condition met

In: Check this compound for relative affinity of tieing (ARL), Glucocorticoid at or above 200: `C#C[C@]1(O)CC[C@H]2[C@@H]3CCC4=CC(=O)CCC4=C3[C@@H](c3ccc(N(C)C)cc3)C[C@@]21C`
Out: condition met

In: Check this compound for relative affinity of tieing (ARL), Glucocorticoid at or above 200: `C#C[C@@]1(O)CC[C@H]2[C@@H]3CCC4=CC(=O)CCC4=C3[C@@H](c3ccc(N(C)C)cc3)C[C@@]21C`
Out: condition not met

In: Check this compound for relative affinity of tieing (ARL), Glucocorticoid at or above 200: `C=C(C)C#C[C@]1(O)CC[C@H]2[C@@H]3CCC4=CC(=O)CCC4=C3[C@@H](c3ccc(N(C)C)cc3)C[C@@]21C`
Out: condition met
